The reader will find reported viability, T/C values listed item by item below.
System: KRAS PDC multicell spheroid viability;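 note: spheroids exposed to compounds for 7 days; 100% = DMSO vehicle control viability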
METHOD_DESCRIPTION: Anticancer human tumor 825966-067-R-J1-PDC patient-derived colon carcinoma cell line growth inhibition [KRAS2]
TEST_SETTINGS: second compound 10 µM; first compound 0.316 µM; active compounds read low
RESULT_TYPE: viability, T/C (%)

COMPOUND: CCNC(=O)CC1N=C(c2ccc(Cl)cc2)c2cc(OC)ccc2-n2c(C)nnc21 (stereo not drawn) + COc1cc2nc(C)nc(NC(C)c3cc(N)cc(C(F)(F)F)c3)c2cc1OC1CCOC1
REPORTED_VALUE: 17.4

COMPOUND: CC1OCC2(CCN(c3cnc(Sc4ccnc(N)c4Cl)c(N)n3)CC2)C1N (stereo not drawn) + CNCc1ccccc1-c1csc(C(C)Nc2nc(C)nc3cc(OC)c(OC)cc23)c1
REPORTED_VALUE: 0.35

COMPOUND: CC(C)NCC(C(=O)N1CCN(c2ncnc3c2C(C)CC3O)CC1)c1ccc(Cl)cc1 (stereo not drawn) + COc1cc2nc(C)nc(NC(C)c3cc(N)cc(C(F)(F)F)c3)c2cc1OC1CCOC1
REPORTED_VALUE: 3.69
